Test: Protein binding in rat plasma at 5 uM after 45 mins by LC-MS/MS analysis
Assay type: ADME, cell-free
Details: read-out: PPB
Can you tell me fraction unbound at 0.75 h, 5 µM for the items I'm about to list?

[in] Any idea what its fraction unbound at 0.75 h, 5 µM is? The compound is COc1cc(C(=O)NS(C)(=O)=O)ccc1-c1cnc(Oc2cc(Cl)cc(Cl)c2)c(C#N)c1
[out] < 0.001

[in] And then COc1cc(C(=O)NS(C)(=O)=O)ccc1-c1cnc(Oc2cc(Cl)cc(Cl)c2)c(Cl)c1 , what is it?
[out] < 0.001

====

Biological target: Sodium channel protein type 9 subunit alpha (Homo sapiens, UniProt Q15858)
Sequence (Q15858 whole entry): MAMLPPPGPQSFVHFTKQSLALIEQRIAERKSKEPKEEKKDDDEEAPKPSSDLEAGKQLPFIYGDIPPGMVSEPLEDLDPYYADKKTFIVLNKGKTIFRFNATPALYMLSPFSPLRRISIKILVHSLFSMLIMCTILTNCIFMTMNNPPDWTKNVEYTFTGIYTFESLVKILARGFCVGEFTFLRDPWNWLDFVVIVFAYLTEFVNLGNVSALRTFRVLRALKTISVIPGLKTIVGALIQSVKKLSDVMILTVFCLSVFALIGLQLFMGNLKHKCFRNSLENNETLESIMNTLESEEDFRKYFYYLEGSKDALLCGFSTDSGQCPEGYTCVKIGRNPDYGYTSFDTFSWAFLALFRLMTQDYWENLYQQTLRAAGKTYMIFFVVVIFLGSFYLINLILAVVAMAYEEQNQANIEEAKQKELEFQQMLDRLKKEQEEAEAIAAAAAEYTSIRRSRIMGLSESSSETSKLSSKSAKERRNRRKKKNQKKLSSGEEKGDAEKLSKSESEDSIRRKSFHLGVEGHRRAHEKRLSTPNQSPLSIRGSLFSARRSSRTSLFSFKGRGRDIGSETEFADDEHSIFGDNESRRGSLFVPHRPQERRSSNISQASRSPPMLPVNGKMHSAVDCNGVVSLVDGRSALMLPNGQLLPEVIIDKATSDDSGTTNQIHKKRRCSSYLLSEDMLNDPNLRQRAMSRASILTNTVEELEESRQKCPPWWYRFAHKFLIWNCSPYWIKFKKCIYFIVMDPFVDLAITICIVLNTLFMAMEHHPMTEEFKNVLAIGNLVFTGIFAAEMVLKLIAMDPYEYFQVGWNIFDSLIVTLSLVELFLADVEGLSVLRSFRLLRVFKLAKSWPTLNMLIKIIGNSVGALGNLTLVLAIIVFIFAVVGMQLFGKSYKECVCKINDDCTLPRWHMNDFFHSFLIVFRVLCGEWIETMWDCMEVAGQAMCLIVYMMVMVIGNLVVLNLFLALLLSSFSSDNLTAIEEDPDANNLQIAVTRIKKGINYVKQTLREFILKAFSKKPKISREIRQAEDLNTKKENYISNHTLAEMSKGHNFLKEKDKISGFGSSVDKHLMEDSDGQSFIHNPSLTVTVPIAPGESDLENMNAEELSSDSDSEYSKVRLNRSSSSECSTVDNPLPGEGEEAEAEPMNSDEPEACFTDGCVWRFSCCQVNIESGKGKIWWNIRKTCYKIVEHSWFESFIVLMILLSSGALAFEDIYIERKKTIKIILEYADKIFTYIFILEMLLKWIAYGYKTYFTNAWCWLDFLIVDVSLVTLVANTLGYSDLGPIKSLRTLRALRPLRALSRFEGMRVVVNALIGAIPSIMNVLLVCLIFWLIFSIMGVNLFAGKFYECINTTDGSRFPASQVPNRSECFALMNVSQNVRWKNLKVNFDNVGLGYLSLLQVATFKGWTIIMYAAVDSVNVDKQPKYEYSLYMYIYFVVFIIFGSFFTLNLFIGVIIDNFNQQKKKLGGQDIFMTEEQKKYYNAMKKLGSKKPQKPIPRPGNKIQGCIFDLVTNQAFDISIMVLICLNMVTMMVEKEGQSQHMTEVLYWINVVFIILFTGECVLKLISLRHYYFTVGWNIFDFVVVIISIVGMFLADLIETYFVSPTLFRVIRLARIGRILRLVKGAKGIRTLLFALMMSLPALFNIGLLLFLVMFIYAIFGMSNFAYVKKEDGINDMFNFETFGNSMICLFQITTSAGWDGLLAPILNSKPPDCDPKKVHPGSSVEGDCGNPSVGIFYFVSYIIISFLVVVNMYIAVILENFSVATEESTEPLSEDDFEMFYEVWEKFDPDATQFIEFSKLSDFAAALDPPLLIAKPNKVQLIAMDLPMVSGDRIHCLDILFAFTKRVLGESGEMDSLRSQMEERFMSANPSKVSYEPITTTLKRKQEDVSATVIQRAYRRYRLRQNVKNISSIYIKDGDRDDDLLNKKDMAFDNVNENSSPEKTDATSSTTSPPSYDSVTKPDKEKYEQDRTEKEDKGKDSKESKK
Experiment: Inhibition of human Nav1.7 at resting/closed state expressed in HEK293 cells at -140 mV holding potential by manual whole cell patch clamp electrophysiology assay
Type: cell-based
measuredParameter: IC50

[in] Find the recorded IC50 belonging to COc1cc(C(=O)NS(C)(=O)=O)c(F)cc1-c1cnc(Oc2cc(F)ccc2F)c(Cl)c1 and report it.
[out] > 30 µM

====

Please go through the items and note down their pIC50.
Molecular target: Sodium channel protein type 5 subunit alpha (Homo sapiens, UniProt Q14524)
Sequence (Q14524 whole entry): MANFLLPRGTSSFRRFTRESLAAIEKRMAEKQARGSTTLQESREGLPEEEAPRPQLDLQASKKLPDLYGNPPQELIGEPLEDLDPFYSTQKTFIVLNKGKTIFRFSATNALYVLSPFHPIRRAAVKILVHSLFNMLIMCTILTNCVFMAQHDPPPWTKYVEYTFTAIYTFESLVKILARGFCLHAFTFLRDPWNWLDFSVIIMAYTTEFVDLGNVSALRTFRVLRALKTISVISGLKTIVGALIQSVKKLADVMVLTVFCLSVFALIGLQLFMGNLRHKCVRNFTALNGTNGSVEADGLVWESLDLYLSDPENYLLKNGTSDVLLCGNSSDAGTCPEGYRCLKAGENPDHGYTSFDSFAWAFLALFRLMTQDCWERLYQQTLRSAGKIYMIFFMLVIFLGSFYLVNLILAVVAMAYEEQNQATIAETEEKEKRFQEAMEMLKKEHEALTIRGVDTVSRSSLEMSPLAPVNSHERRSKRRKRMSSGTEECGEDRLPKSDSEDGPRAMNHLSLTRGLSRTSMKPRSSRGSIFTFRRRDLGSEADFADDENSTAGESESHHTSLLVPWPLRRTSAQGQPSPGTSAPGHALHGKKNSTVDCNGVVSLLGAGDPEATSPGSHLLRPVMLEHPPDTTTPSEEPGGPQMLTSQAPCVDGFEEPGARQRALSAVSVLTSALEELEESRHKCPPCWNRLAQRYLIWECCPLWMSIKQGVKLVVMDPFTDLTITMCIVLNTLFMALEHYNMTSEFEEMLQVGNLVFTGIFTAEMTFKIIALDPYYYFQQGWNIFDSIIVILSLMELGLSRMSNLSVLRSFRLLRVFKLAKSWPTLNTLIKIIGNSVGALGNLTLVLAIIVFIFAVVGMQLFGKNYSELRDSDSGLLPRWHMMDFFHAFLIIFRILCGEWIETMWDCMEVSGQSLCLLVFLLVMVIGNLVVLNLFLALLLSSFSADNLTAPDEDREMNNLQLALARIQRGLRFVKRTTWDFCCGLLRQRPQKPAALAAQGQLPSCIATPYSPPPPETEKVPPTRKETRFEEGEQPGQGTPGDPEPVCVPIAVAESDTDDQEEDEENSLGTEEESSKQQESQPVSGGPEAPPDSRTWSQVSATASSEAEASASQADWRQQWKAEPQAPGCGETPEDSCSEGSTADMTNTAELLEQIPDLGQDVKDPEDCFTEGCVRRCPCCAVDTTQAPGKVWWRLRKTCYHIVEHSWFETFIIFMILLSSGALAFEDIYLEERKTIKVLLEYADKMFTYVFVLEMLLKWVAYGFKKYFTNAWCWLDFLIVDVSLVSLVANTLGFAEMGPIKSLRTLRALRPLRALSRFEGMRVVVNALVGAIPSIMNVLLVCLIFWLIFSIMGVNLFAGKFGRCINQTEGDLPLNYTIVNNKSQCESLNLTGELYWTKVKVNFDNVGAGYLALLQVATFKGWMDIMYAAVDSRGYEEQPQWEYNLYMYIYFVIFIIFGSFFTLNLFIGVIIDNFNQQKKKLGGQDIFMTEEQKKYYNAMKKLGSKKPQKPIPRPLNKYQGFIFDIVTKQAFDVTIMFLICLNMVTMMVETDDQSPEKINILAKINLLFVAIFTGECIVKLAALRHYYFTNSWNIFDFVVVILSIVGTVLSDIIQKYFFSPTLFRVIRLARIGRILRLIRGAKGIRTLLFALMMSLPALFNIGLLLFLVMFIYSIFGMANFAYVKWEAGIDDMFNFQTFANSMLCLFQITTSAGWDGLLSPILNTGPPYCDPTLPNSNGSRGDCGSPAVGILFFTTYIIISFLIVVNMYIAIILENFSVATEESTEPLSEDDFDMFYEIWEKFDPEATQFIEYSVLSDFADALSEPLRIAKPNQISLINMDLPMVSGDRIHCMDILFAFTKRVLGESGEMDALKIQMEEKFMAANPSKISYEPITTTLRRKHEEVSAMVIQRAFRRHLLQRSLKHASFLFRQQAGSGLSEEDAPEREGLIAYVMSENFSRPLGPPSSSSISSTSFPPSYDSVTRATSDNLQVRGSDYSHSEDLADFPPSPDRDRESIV
Experiment: Inhibition of human Nav1.5 expressed in HEK293 cells incubated for 3 to 5 mins at -50 mV holding potential by electrophysiology assay
pIC50 field: float, defined as -log10 of concentration (mol/L).

[in] For CC(C)COc1ncc(-c2ccc(C(=O)NS(C)(=O)=O)cc2C(F)(F)F)cc1Cl , what is its reported pIC50?
[out] 5.51

[in] Proceed to CC(C)COc1ncc(-c2ccc(C(=O)NS(C)(=O)=O)cc2F)cc1Cl
[out] 4.64

[in] Can you check COc1cc(C(=O)NS(C)(=O)=O)ccc1-c1cnc(Oc2cc(Cl)cnc2OC)c(Cl)c1 next?
[out] 4.94

[in] Then COc1cc(C(=O)NS(C)(=O)=O)ccc1-c1cnc(OCC2(C)CC2)c(Cl)c1 ?
[out] 5.03

[in] How about this molecule: COc1cc(C(=O)NS(C)(=O)=O)ccc1-c1cnc(OC2CCC2)c(Cl)c1
[out] 4.75

[in] Same question for CC(C)COc1ncc(-c2ccc(C(=O)NS(C)(=O)=O)cc2C#N)cc1Cl please.
[out] 4.62

[in] What about COc1cc(C(=O)NS(C)(=O)=O)ccc1-c1cnc(Oc2cc(Cl)cc(Cl)c2)c(C#N)c1 ?
[out] 4.79

====

Molecular target: Sodium channel protein type 5 subunit alpha (Homo sapiens)
Test: Inhibition of human Nav1.5 expressed in HEK293 cells incubated for 3 to 5 mins at -50 mV holding potential by electrophysiology assay
pIC50: −log10 of the molar value.
Could you please report measured pIC50 for the items listed next?

[in] State the recorded pIC50 for this entry: CC(C)COc1ncc(-c2ccc(C(=O)NS(C)(=O)=O)cc2C2=CCOC2)cc1Cl
[out] < 4.38

[in] For CS(=O)(=O)NC(=O)c1cc(F)c(-c2ccc(Cl)c(Cl)c2)cc1F then?
[out] < 4.38

[in] Please do the same for CC(C)COc1ncc(-c2cc(F)c(C(=O)NS(C)(=O)=O)cc2F)cc1Cl as well.
[out] < 4.52

====

Record form. Attribute: microsomal CLint at 1 µM. Fill in for each entry.
Assay: in vitro
Settings: rat, liver microsomes

[in] So what's the measured microsomal CLint at 1 µM for this one? Cc1cc(-c2cnc(OCC(C)C)c(Cl)c2)ccc1C(=O)NS(C)(=O)=O
[out] < 14 µL/min/mg

[in] Input COc1cc(C(=O)NS(C)(=O)=O)ccc1-c1cnc(Oc2cc(Cl)cc(Cl)c2)c(Cl)c1
[out] < 14 µL/min/mg

[in] Same question, CC(C)COc1ncc(-c2ccc(C(=O)NS(C)(=O)=O)cc2C(=O)N(C)C)cc1Cl this time
[out] < 14 µL/min/mg

[in] And the next one, COc1cc(C(=O)NS(C)(=O)=O)ccc1-c1cnc(Oc2cc(Cl)cc(Cl)c2)c(C(F)(F)F)c1 ?
[out] < 14 µL/min/mg

[in] Try COc1cc(C(=O)NS(C)(=O)=O)ccc1-c1cnc(Oc2cc(Cl)cc(Cl)c2)c(C(F)F)c1 next.
[out] < 14 µL/min/mg

====

Target: Sodium channel protein type 5 subunit alpha (Homo sapiens)
Assay: Inhibition of human Nav1.5 expressed in HEK293 cells incubated for 3 to 5 mins at -50 mV holding potential by electrophysiology assay
pIC50: −log10 of the molar value.
Please provide measured pIC50 for the entries that follow.

[in] Recorded pIC50 of CS(=O)(=O)NC(=O)c1ccc(-c2ccc(Cl)c(Cl)c2)cc1 , please.
[out] < 4.38

[in] Also need CS(=O)(=O)NC(=O)c1ccc2c(-c3ccc(C(F)(F)F)c(Cl)c3)nccc2c1 , thanks.
[out] < 4.52

[in] Would you mind doing COc1cc(C(=O)NS(C)(=O)=O)ccc1-c1cnc(OCC(C)C)c(Cl)c1 as well?
[out] < 4.52

[in] What do we get for CS(=O)(=O)NC(=O)c1cc(F)c(Oc2ccc(Cl)c(Cl)c2)cc1F ?
[out] < 4.52
